This section presents molecules with their documented IC50 values.
- Tested on: 313798-341-R-J2-PDC spheroids, viability
- ASSAY METHOD TEXT: Anticancer human tumor 313798-341-R-J2-PDC patient-derived cervical squamous cell carcinoma cell line growth inhibition [PI3K]
- MEASUREMENT CONTEXT: curve of first compound; second compound 0.316 µM; spheroids with HUVEC and MSC

C#Cc1c(F)ccc2cc(O)cc(-c3ncc4c(N5CC6CCC(C5)N6)nc(OCC56CCCN5CC(F)C6)nc4c3F)c12 (stereo not drawn) + COc1c(OCCCN2CCOCC2)ccc2c3n(c(=NC(=O)c4cnc(N)nc4)nc12)CCN3    < 0.0316 µM
CNC(=O)c1ccc(N2C(=S)N(c3ccc(C#N)c(C(F)(F)F)c3)C(=O)C2(C)C)cc1F + CC(Nc1ccc2c(c1)OCCn1cc(N3C(=O)OCC3C(F)F)nc1-2)C(N)=O    > 10 µM

Now for the molecule whose IC50 we want.
Return reported IC50; argument: Cn1ncc(Cl)c1-c1cc(C(=O)NC(CN)Cc2cccc(F)c2)sc1Cl (stereo not drawn) + COc1c(OCCCN2CCOCC2)ccc2c3n(c(=NC(=O)c4cnc(N)nc4)nc12)CCN3
< 0.0316 µM

* * *

- Tested on: 313798-341-R-J2-PDC spheroids, viability
- ASSAY METHOD TEXT: Anticancer human tumor 313798-341-R-J2-PDC cell line growth inhibition [PI3K];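 also: spheroids exposed to compounds for seven days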
- MEASUREMENT CONTEXT: curve of first compound; second compound 1 µM; spheroids with HUVEC and MSC
EXPERIMENTAL READOUT: IC50

Below: 4 molecules and their reported IC50.
C=CC(=O)N1CCN(c2nc(=O)n(-c3c(C)ccnc3C(C)C)c3nc(-c4c(O)cccc4F)c(F)cc23)C(C)C1 (stereo not given) + Cc1nc(NC(=O)N2CCCC2C(N)=O)sc1-c1ccnc(C(C)(C)C(F)(F)F)c1    > 10 µM
Cn1nccc1Nc1nccc(-c2ccn(C(CO)c3ccc(Cl)c(F)c3)c(=O)c2)n1 (stereo not given) + Cc1nc(NC(=O)N2CCCC2C(N)=O)sc1-c1ccnc(C(C)(C)C(F)(F)F)c1    > 10 µM
CNC(=O)c1ccc(N2C(=S)N(c3ccc(C#N)c(C(F)(F)F)c3)C(=O)C2(C)C)cc1F + CC(Nc1ccc2c(c1)OCCn1cc(N3C(=O)OCC3C(F)F)nc1-2)C(N)=O    3.72 µM
Cn1ncnc1[C@H]1c2n[nH]c(=O)c3cc(F)cc(c23)N[C@@H]1c1ccc(F)cc1 + Cc1nc(NC(=O)N2CCCC2C(N)=O)sc1-c1ccnc(C(C)(C)C(F)(F)F)c1    > 0.1 µM

Now for the molecule whose IC50 we want.
Return reported IC50; argument: CCN1CCN(Cc2ccc(Nc3ncc(F)c(-c4cc(F)c5nc(C)n(C(C)C)c5c4)n3)nc2)CC1 + CC(Nc1ncnc2nc[nH]c12)c1cc2cccc(Cl)c2c(=O)n1-c1ccccc1
> 1 µM

* * *

- Tested on: 313798-341-R-J2-PDC spheroids, viability
- ASSAY METHOD TEXT: Anticancer human tumor 313798-341-R-J2-PDC cell line growth inhibition [PI3K]; active means viability on the fitted dose curve at most 10% of control; inactive means the rest;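 also: spheroids exposed to compounds for seven days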
- MEASUREMENT CONTEXT: second compound 1 µM; first compound 10 µM; spheroids with HUVEC and MSC
Output constraint: value belongs to 1 = active, -1 = inactive

CC(C)NCC(C(=O)N1CCN(c2ncnc3c2C(C)CC3O)CC1)c1ccc(Cl)cc1 (stereo not drawn) + CC(Nc1ccc2c(c1)OCCn1cc(N3C(=O)OCC3C(F)F)nc1-2)C(N)=O    -1
C#Cc1c(F)ccc2cc(O)cc(-c3ncc4c(N5CC6CCC(C5)N6)nc(OCC56CCCN5CC(F)C6)nc4c3F)c12 (stereo not drawn) + COc1c(OCCCN2CCOCC2)ccc2c3n(c(=NC(=O)c4cnc(N)nc4)nc12)CCN3    1

Next:
Hi, do you know how Cn1ncc(Cl)c1-c1cc(C(=O)NC(CN)Cc2cccc(F)c2)sc1Cl (stereo not drawn) + Cc1nc(NC(=O)N2CCCC2C(N)=O)sc1-c1ccnc(C(C)(C)C(F)(F)F)c1 came out in this test?
-1
